Ref: patent US11230591

Overview of reported Pair-wise inhibition (%) across a group of binders:
Tgt: recombinant pentameric gH complex (Towne strain) (human cytomegalovirus, Towne strain) (UniProt P17176)
Sequence (P17176 30-715, one chain of several): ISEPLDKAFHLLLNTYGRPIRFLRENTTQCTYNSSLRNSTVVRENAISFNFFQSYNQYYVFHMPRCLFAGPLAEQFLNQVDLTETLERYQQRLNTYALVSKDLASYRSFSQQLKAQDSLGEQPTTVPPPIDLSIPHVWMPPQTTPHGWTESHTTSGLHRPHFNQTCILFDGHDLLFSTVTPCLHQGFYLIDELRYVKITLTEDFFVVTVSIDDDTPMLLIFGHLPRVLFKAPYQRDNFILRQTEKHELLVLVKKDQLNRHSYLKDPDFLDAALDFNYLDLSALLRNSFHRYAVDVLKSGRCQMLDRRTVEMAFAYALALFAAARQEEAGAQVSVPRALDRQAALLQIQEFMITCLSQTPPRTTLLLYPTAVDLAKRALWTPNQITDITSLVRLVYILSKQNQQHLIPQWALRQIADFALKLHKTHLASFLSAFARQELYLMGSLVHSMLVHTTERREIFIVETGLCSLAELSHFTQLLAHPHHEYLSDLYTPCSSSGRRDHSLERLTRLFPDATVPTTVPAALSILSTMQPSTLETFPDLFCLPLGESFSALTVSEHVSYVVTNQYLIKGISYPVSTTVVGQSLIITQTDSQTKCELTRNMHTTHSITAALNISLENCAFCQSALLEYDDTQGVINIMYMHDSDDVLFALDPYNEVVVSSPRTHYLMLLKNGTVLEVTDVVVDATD
Assay Procedure: BLI competition on His-pentamer; competitor (antibody 2): 316.2
Give the value in % but do not write % after it.

2-25 (antibody, V domains shown) VH: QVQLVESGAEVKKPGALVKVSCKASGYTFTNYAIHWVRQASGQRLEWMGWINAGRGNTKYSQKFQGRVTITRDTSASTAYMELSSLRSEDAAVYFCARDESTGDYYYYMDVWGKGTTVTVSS VL: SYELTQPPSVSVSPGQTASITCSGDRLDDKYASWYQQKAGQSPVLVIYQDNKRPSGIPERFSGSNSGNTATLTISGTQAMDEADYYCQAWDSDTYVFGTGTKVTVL | -1

GET /value?item= 1-32 (antibody, V domains shown) VH: QVKLVESGGGVVQPGRSLRLSCAGSGFAFDNYAMHWVRQAPGKGLEWVAVISLEGRNKYYAGPAKGRFSISRDNSRNTVHLQMNSLRPEDTAVYFCARDMRYYYDSNGHYRNRYGMDVWGQGTTVIVSS VL: DIQMTQSPSSLSASVGDSVTITCQASQDINQFVSWYQQKPGKPPKLLIYDASNLESGVPSRFSGSGSGTHFTFTISSLQPDDIATYYCQQYENLFTFGPGTKVDIK &field=Pair-wise inhibition (%) returns 78

# Pair-wise inhibition (%) (binder: 3-16 (antibody, V domains shown) VH: QVQVVQSGAEVKKPGASVMVSCKTSGYRFTIYSIAWMRQAPGQGLEWMGSINTYNGNTKYAEKFQGRVTMSRDTSTSTAYMEVRSLGSADTAMYYCARDAENWGFFDDWGQGTLVTVSS VL: EIVLTQSPGTVSLSPGERVTLSCRASQSVGRHLAWYQQKPGQPPRLLIYGASTRATGVPDRFSGSGSETEFTLAISSLQSEDFALYYCQQYNTWPYTFGQGTKLEIK ) is -7
